# Binding Score listing for each entry below
# system: T1, Soluble CTLA-4-Ig (extracellular domain of human CTLA-4 fused to the Fc portion of human IgG1) (human, UniProt P16410 36-161, FITC-conjugated in the FACS binding assays)
# T1 construct: extracellular domain; bought from R&D Systems; also called sCTLA-4-Ig; CTLA-4-Ig Fc; not shown: Fc portion of human IgG1
# T1 sequence (P16410 36-161): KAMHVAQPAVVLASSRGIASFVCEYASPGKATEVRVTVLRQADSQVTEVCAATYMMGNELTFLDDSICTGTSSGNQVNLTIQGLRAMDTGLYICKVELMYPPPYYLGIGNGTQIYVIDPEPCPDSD
# assay: competitive FACS on transfected cells, FITC-sCTLA-4-Ig with biotin-sCD28-Ig; grade 0-2 of CTLA-4/CD28 ratio vs WT hB7-1
API note: the answer field is a bare number with no unit suffix.

Round 2 CTLA4BP-5x2-8c (ligand) VIHMTKEVKEVATLSCGHNVSVEELAQTRIYWQKEKKMVLTMMSGDMNIWPEYKNRTIFDITNNLSIVILALRPSDEGTYECVVLKYEKDAFKQEHLAEVMLSVKADFPTPSITDFEIPPSNIRRIICSTSGGFPEPHLFWLENGEELNAINTTVSQDPETELYAVSSKLDFNMTTNHSFVCLIKYGHLRVNQTFNWNTPKQEHFPDNLLPSWAITLISANGIFVICCLTYCFAPRCRERRRNERLRRESVHPV | 2
Round 2 CTLA4BP-5X2-12F (ligand) VIHVTKEVKEVATLSCGHNVSVEELAQTRIHWQKEKKMVLTMMSGDMNIWPEYKNRTIFDITNNLSIVILALRPSDEGTYECVVLKYEKDAFKREHLAEVTLSVKADFPTPSITDFEIPPSNIKRIICSTSGGFPEPHLSWLENGEELNAINTTVSQDPETELYTVSSKLDFNMTTNHSFMCLIKYGHLRVNQTFNWNTPKQEHFPDNPLPSWAITLISANGIFVICCLTYCFAPRCRERRRNETLRRESVRPV | 1
Round 2 CTLA4BP 5x4-h1 (ligand) VIHVTKEVKEVATLSCGHNVSVEELAQTRIHWQKEKKMVLTMMSGDMNIWPEYKNRTIFDITNNLSIVILALRPSDEGTYECVVLKYEKDAFKRKHLAEVMLSVKADFPTPSISDFEIPTSNIRRIICSTSGGFPEPHLFWLENGEELNAINTTASQDPETELYTVSSKLDFNMTTNRSFVCLIKYGHLRVNQTFNWNTPKQEHFPNNLLPSWAITLISVNGIFVICCLTYCFAPRCRERRRNETLRRESVHPV | 2
Round 2 CTLA4BP-5x4-11d (ligand) VIHVTKEVKEVATLSCGLNVSVEELAQTRIHWQKEKKMVLTMMSGDMNIWPEYKNRTIFDITNNLSIVILALRPSDEGTYECVVLKYDKDAFKREHLAEVTLSVKADFPTPSISDFEIPPSNIRRIICSTSGGFPEPHLSWLENGEELNAINTTVSQDPETELYTVSSKLDFNMTANHSFVCLIKYGHLRVNQTFNWNTPKQEHFPDNLLPSWAITLISVNGIFVICCLTYRFAPRCRERKSNERLRRESVRPV | 2

Here is another binder to look at.
Measured Binding Score of Round 2 CTLA4 A-E2-6 (ligand) ITPKSVTKRVKETVMLSCDYNTSTEELTSLRIYWQKDSKMVLAILPGKVQVWPEYKNRTITDMNDNPRIVILALRLSDSGTYTCVVQKNENGSFRREHLTSVRLMIRADFPVPTINDLGNPSPNIRRLICSTSGGFPRPHLYWLENGEELNATNTTLPQDPETKLYMISSELDFNMTSNHSFLCLVKYGDLTVSQTFYWQESKPTPSANQHLTWTIIIPVSAFGISVIIAVILTCLTCRNAAIRRQRRENEVEMQSCSQSP : 1
